Values compiled from ChEMBL document CHEMBL1201862.

- System: SF-295
- protocol-description: NCI tumour cell line growth inhibition, 48 h
Calls of active or inactive are those of the source. Rule as the data show it: active = GI50 up to about 1.1 µM and inactive = higher.
Classes used: TRUE for active, FALSE for inactive

{"columns": ["molecule", "classification"],
 "data": [
  ["Cc1c(/C=N/NC(=O)c2ccc(Cl)cc2)c(=O)n(-c2ccccc2)n1C", "FALSE"],
  ["O=[N+]([O-])/C(C(Cl)=C(Cl)Cl)=C(/Br)SCc1ccccc1", "FALSE"],
  ["O=C(/C=C/c1ccccc1O)c1cccc2ccccc12", "FALSE"],
  ["[N-]=[N+]=NC1OC(=O)C(Cl)=C1N=P(c1ccccc1)(c1ccccc1)c1ccccc1 (configuration not stated)", "FALSE"],
  ["C[C@]12CC[C@H]3[C@@H](CC=C4C[C@@H](O)CC[C@@]43C)[C@@H]1C/C(=C\\c1ccncc1)[C@@H]2O", "FALSE"],
  ["C=CCSC1=N/C(=C\\c2ccc(Cl)cc2)C(=O)N1CC=C", "FALSE"],
  ["COc1ccc2c(c1)-c1c(c3ccccc3n1CCN1CCOCC1)CC2", "FALSE"],
  ["N=C(N)SCc1ccc(N=C=S)cc1", "FALSE"],
  ["CC1(C)CCC2=C(O1)/C(=N\\Nc1ccc(F)cc1)c1ccccc1C2=O", "FALSE"],
  ["O=[N+]([O-])c1ccc(-c2csc3nc(-c4ccccc4)nn23)cc1", "FALSE"],
  ["CC(=O)O[C@]1(C)OC(=O)[C@@H](C)N1[N+](=O)[O-]", "FALSE"],
  ["C/C(Nc1ccc(Cl)cc1)=C1/CCOC1=O", "FALSE"],
  ["C[C@]12[C@@H]3CC[C@H]1[C@@H](OC(=O)Nc1cc([N+](=O)[O-])cc([N+](=O)[O-])c1)C(=O)N2CC3", "FALSE"],
  ["CC(C)c1ccc(/C=C2\\CSCC3=C2N=C2SCC(=O)N2C3c2ccc(C(C)C)cc2)cc1 (configuration not stated)", "FALSE"],
  ["O=C1C=CC(=O)C2C1Cc1ccccc1C2c1ccccc1 (configuration not stated)", "FALSE"],
  ["O=c1c2cc(O)c(O)cc2oc2cc(O)c(C3OC(CO)C(O)C(O)C3O)c(O)c12 (configuration not stated)", "FALSE"],
  ["COc1cc(C23OCC(Cc4cc5c(cc42)OCO5)C3CO)cc(OC)c1OC (configuration not stated)", "TRUE"],
  ["O=C1/C(=C/c2cccc3ccccc23)CCc2ccc([N+](=O)[O-])cc21", "FALSE"],
  ["N=C(NC(=S)N1CCCCC1)N1CCCCC1", "FALSE"],
  ["COc1cc(C2SC(C)C(=O)N2c2ccc(-c3csc(NS(=O)(=O)c4ccc(Cl)c(OC)c4)n3)cc2)ccc1O (configuration not stated)", "FALSE"],
  ["O=c1c2cc(Br)ccc2ncn1COCc1ccccc1", "FALSE"],
  ["Cc1cccnc1N/C=C1\\C(=O)NC(=O)N(C)C1=O", "FALSE"]
]}
